Reference for the values: the CheMixHub drug solubility set

test: xn = mol fraction of the nth substance listed, in the solute-free solvent; conditions: 318.15 K; x2 = 0.08908
Use 1.0 when the recorded solubility (g/100 g solution) is no lower than 0.1; use 0.0 when it is lower.

Worked examples, 4 compounds total:
[
  {
    "compound": "Nc1cc(-c2ccncc2)c[nH]c1=O + CCO + O",
    "category label": 0.0
  },
  {
    "compound": "Nc1ncc(Br)nc1Br + CCO + O",
    "category label": 1.0
  },
  {
    "compound": "CC(C)C(=O)Nc1ccc([N+](=O)[O-])c(C(F)(F)F)c1 + CCO + O",
    "category label": 1.0
  },
  {
    "compound": "O=C1C=CC(=O)N1c1ccccc1Br + CCO + O",
    "category label": 1.0
  }
]

Input line: # bool: solubility (g/100 g solution) of O=c1cc(CBr)c2ccccc2[nH]1 + CCO + O >= 0.1
Output line: 1.0

----------
assay: xn = mol fraction of the nth substance listed, in the solute-free solvent; conditions: 323.15 K; x2 = 0.04165
Here the recorded solubility (g/100 g solution) is given for each entry.
# print the numeric value only

[
  {
    "compound": "O=C1C=CC(=O)N1c1ccccc1Br + CCO + O",
    "solubility (g/100 g solution)": 3.59
  },
  {
    "compound": "Nc1cc(-c2ccncc2)c[nH]c1=O + CCO + O",
    "solubility (g/100 g solution)": 0.00424
  },
  {
    "compound": "CC(C)C(=O)Nc1ccc([N+](=O)[O-])c(C(F)(F)F)c1 + CCO + O",
    "solubility (g/100 g solution)": 0.0251
  }
]

With those in mind, consider the next compound.
Input line: May I ask what solubility (g/100 g solution) has been recorded for Nc1ncc(Br)nc1Br + CCO + O ?
Output line: 0.0668

----------
experiment: xn = mol fraction of the nth substance listed, in the solute-free solvent; conditions: 278.15 K; x2 = 0.03225
readout type: solubility (g/100 g solution)
# print the numeric value only

Input line: May I ask what solubility (g/100 g solution) has been recorded for O=c1cc(CBr)c2ccccc2[nH]1 + CCCO + O ?
Output line: 0.0181

Input line: May I ask what solubility (g/100 g solution) has been recorded for O=C1C=CC(=O)N1c1ccccc1Br + CC(C)O + O ?
Output line: 0.488

Input line: May I ask what solubility (g/100 g solution) has been recorded for CC(C)C(=O)Nc1ccc([N+](=O)[O-])c(C(F)(F)F)c1 + CC(C)O + O ?
Output line: 0.00411

Input line: May I ask what solubility (g/100 g solution) has been recorded for Nc1ncc(Br)nc1Br + CC(C)O + O ?
Output line: 0.0151

Input line: May I ask what solubility (g/100 g solution) has been recorded for O=c1cc(CBr)c2ccccc2[nH]1 + CC(C)O + O ?
Output line: 0.0121

----------
assay: xn = mol fraction of the nth substance listed, in the solute-free solvent; details: 303.15 K; x2 = 0.2068
Use true when the recorded solubility (g/100 g solution) is no lower than 0.9; use false when it is lower.

Worked examples, 4 compounds total:
[
  {
    "compound": "O=C1C=CC(=O)N1c1ccccc1Br + CCO + O",
    "category label": "true"
  },
  {
    "compound": "O=c1cc(CBr)c2ccccc2[nH]1 + CCO + O",
    "category label": "false"
  },
  {
    "compound": "Nc1cc(-c2ccncc2)c[nH]c1=O + CCO + O",
    "category label": "false"
  },
  {
    "compound": "CC(C)C(=O)Nc1ccc([N+](=O)[O-])c(C(F)(F)F)c1 + CCO + O",
    "category label": "false"
  }
]

// next entry
Input line: # bool: solubility (g/100 g solution) of Nc1ncc(Br)nc1Br + CCO + O >= 0.9
Output line: false

----------
Here the recorded solubility (g/100 g solution) is given for each entry.
assay: xn = mol fraction of the nth substance listed, in the solute-free solvent; conditions: 298.15 K; x2 = 0.06974
# print the numeric value only

[
  {
    "compound": "Nc1ncc(Br)nc1Br + CC(C)O + O",
    "value reported": 0.0724
  },
  {
    "compound": "O=c1cc(CBr)c2ccccc2[nH]1 + CC(C)O + O",
    "value reported": 0.0516
  },
  {
    "compound": "O=C1C=CC(=O)N1c1ccccc1Br + CC(C)O + O",
    "value reported": 2.09
  },
  {
    "compound": "CC(C)C(=O)Nc1ccc([N+](=O)[O-])c(C(F)(F)F)c1 + CC(C)O + O",
    "value reported": 0.0768
  }
]

With those in mind, consider the next compound.
Input line: May I ask what solubility (g/100 g solution) has been recorded for O=c1cc(CBr)c2ccccc2[nH]1 + CCCO + O ?
Output line: 0.0674

----------
Here the recorded solubility (g/100 g solution) is given for each entry.
assay: xn = mol fraction of the nth substance listed, in the solute-free solvent; details: 278.15 K; x2 = 0.3103
# print the numeric value only

Worked examples, 4 compounds total:
[
  {
    "compound": "CC(C)C(=O)Nc1ccc([N+](=O)[O-])c(C(F)(F)F)c1 + CC(C)O + O",
    "value reported": 3.62
  },
  {
    "compound": "O=c1cc(CBr)c2ccccc2[nH]1 + CC(C)O + O",
    "value reported": 0.0585
  },
  {
    "compound": "O=c1cc(CBr)c2ccccc2[nH]1 + CCCO + O",
    "value reported": 0.0908
  },
  {
    "compound": "Nc1ncc(Br)nc1Br + CC(C)O + O",
    "value reported": 0.153
  }
]

With those in mind, consider the next compound.
Input line: May I ask what solubility (g/100 g solution) has been recorded for O=C1C=CC(=O)N1c1ccccc1Br + CC(C)O + O ?
Output line: 3.46

----------
test: xn = mol fraction of the nth substance listed, in the solute-free solvent; details: 278.15 K; x2 = 0.4117
Use true (1) when the recorded solubility (g/100 g solution) is no lower than 4; use false (0) when it is lower.

[
  {
    "compound": "O=c1cc(CBr)c2ccccc2[nH]1 + CC(C)O + O",
    "category label": "false (0)"
  },
  {
    "compound": "Nc1ncc(Br)nc1Br + CC(C)O + O",
    "category label": "false (0)"
  }
]

Input line: # bool: solubility (g/100 g solution) of O=C1C=CC(=O)N1c1ccccc1Br + CC(C)O + O >= 4
Output line: false (0)

Input line: # bool: solubility (g/100 g solution) of CC(C)C(=O)Nc1ccc([N+](=O)[O-])c(C(F)(F)F)c1 + CC(C)O + O >= 4
Output line: true (1)

Input line: # bool: solubility (g/100 g solution) of O=c1cc(CBr)c2ccccc2[nH]1 + CCCO + O >= 4
Output line: false (0)

----------
test: xn = mol fraction of the nth substance listed, in the solute-free solvent; conditions: 318.15 K; x2 = 0.03225
Here the recorded solubility (g/100 g solution) is given for each entry.
# print the numeric value only

[
  {
    "molecule": "O=C1C=CC(=O)N1c1ccccc1Br + CC(C)O + O",
    "value reported": 2.7
  },
  {
    "molecule": "CC(C)C(=O)Nc1ccc([N+](=O)[O-])c(C(F)(F)F)c1 + CC(C)O + O",
    "value reported": 0.0297
  },
  {
    "molecule": "O=c1cc(CBr)c2ccccc2[nH]1 + CC(C)O + O",
    "value reported": 0.0897
  },
  {
    "molecule": "Nc1ncc(Br)nc1Br + CC(C)O + O",
    "value reported": 0.0448
  }
]

With those in mind, consider the next molecule.
Input line: May I ask what solubility (g/100 g solution) has been recorded for O=c1cc(CBr)c2ccccc2[nH]1 + CCCO + O ?
Output line: 0.0993

----------
assay: xn = mol fraction of the nth substance listed, in the solute-free solvent; settings: 313.15 K; x2 = 0.1436
Here the recorded solubility (g/100 g solution) is given for each entry.
# print the numeric value only

Worked examples, 3 compounds total:
[
  {
    "compound": "Nc1ncc(Br)nc1Br + CCO + O",
    "solubility (g/100 g solution)": 0.299
  },
  {
    "compound": "CC(C)C(=O)Nc1ccc([N+](=O)[O-])c(C(F)(F)F)c1 + CCO + O",
    "solubility (g/100 g solution)": 0.377
  },
  {
    "compound": "O=C1C=CC(=O)N1c1ccccc1Br + CCO + O",
    "solubility (g/100 g solution)": 6.98
  }
]

Input line: May I ask what solubility (g/100 g solution) has been recorded for Nc1cc(-c2ccncc2)c[nH]c1=O + CCO + O ?
Output line: 0.00722

Input line: May I ask what solubility (g/100 g solution) has been recorded for O=c1cc(CBr)c2ccccc2[nH]1 + CCO + O ?
Output line: 0.127
